- Test system: Staphylococcus aureus
- protocol: Antibacterial activity against Gram-positive methicillin and oxacillin-resistant Staphylococcus aureus ATCC 43300 assessed as inhibition of efflux pump by measuring intracellular accumulation of ethidium bromide at 100 uM and measured every minute for 1 hr by fluorescence based microtiter plate reader analysis
- Type: functional
A collection of compounds and their measured Activity
# answer = number (no unit)

Solved cases below.
• CCOC(=O)[C@H]1c2ccc3ccccc3c2O[C@@H]2c3[nH]c4ccccc4c3CCN21 (relative stereo) = 90479.33
• CCOC(=O)C(c1ccc2ccccc2c1O)N1CCOCC1 (stereo not drawn) = 18886
• CCOC(=O)[C@H]1c2ccc3ccccc3c2O[C@@H]2c3ccccc3CCN21 (relative stereo) = 114226
• CCOC(=O)C(c1c(O)ccc2ccccc12)N1CCOCC1 (stereo not drawn) = 84280
• CCOC(=O)[C@H]1c2c(ccc3ccccc23)O[C@@H]2c3ccccc3CCN21 (relative stereo) = 93822.67
• CCOC(=O)[C@H]1c2c(ccc3ccccc23)O[C@@H]2c3[nH]c4ccccc4c3CCN21 (relative stereo) = 78009

Fill blank: measured Activity of the compound CCOC(=O)[C@H]1c2ccc3ccccc3c2O[C@@H]2c3ccsc3CCN21 (relative stereo) is ____.
103410

Fill blank: measured Activity of the compound CCOC(=O)[C@H]1c2c(ccc3ccccc23)O[C@@H]2c3ccsc3CCN21 (relative stereo) is ____.
88655.67
